Molecular target: PGP (Homo sapiens, UniProt P08183)
Sequence (P08183 whole entry): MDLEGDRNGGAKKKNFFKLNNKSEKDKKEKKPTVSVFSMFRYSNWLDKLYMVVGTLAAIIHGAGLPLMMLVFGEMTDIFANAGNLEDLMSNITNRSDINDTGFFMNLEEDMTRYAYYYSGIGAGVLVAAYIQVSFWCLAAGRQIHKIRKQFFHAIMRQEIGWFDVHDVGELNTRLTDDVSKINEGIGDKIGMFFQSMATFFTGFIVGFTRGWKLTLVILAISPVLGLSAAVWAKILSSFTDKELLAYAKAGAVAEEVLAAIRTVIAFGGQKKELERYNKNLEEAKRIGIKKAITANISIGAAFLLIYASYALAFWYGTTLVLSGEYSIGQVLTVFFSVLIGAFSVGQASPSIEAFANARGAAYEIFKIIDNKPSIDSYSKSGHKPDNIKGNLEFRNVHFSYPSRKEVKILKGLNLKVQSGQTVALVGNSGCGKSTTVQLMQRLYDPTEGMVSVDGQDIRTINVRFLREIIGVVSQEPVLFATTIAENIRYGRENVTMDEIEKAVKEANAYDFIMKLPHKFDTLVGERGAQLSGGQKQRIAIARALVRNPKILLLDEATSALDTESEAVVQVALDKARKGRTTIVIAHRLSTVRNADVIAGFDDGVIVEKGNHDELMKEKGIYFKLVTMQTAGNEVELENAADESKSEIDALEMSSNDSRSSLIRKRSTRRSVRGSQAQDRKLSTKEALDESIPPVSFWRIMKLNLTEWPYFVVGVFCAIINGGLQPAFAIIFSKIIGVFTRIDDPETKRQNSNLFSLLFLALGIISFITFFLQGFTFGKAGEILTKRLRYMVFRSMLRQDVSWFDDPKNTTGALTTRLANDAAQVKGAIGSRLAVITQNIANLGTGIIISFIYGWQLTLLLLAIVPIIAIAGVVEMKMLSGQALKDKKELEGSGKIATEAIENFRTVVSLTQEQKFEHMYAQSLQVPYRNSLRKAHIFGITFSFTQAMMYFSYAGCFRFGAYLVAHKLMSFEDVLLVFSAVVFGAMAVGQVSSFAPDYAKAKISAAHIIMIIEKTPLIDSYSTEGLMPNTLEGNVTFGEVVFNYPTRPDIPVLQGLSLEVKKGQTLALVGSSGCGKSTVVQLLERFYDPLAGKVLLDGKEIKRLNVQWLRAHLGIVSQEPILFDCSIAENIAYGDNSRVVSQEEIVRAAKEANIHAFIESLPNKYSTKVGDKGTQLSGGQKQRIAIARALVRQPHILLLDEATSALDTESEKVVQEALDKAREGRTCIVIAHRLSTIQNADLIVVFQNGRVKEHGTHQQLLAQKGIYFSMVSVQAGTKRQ
Experiment: Frontal chromatography on open tubular PGP column (PGP-OTB)
Conditions: read-out: Kd for the PGP-OTB column; 0.5 nM 3H-Vinblastin marker; r2 0.902
readout.type: Kd (nM)
Numbers only; they are read as nM.

Query block: I'd like to know its Kd. The compound in question is "CC[C@]1(O)C[C@@H]2CN(CCc3c([nH]c4ccccc34)[C@@](C(=O)OC)(c3cc4c(cc3OC)N(C)[C@H]3[C@@](O)(C(=O)OC)[C@H](OC(C)=O)[C@]5(CC)C=CCN6CC[C@]43[C@@H]65)C2)C1"
Result block: 97

----------
Target: GABAA receptor
Test: Frontal chromatography on MR-SP, marker (3H)-FTZ
Format: binding, rat
Settings: MR-SP from rat brain; 25 pM (3H)-FTZ marker; Tris-HCl 50 mM pH 7.4
readout.type: Kd (nM)
Numbers only; they are read as nM.

Query block: I'd like to know its Kd. The molecule in question is "CN1C(=O)CN=C(c2ccccc2)c2cc(Cl)ccc21"
Result block: 1
